experiment: GFP drop in mixed WT/humanized-ribosome E. coli culture – GFP/RFP fluorescence, OD600, single point, bacterial rRNA inhibitor project, primary screen (AID 720706); conditions: E. coli WT GFP vs humanized-ribosome RFP mutants, 24 h; measured here: OD600 growth, DMSO median 0, no signal -100
The campaign covered roughly 350,000 compounds. About 5,500 (1.6%) were called active. Only a selection was taken, and actives are over-represented in it overall.
So I've got a bunch of compounds here, and I need their OD600 change values.
Put your answer as a value accompanied by its unit after it.

Some entries whose results are on file:
COc1ccc(Br)cc1/C=N/Nc1ccc(S(=O)(=O)Nc2ccccc2C(=O)O)cc1[N+](=O)[O-] :: 15.1%
C[C@@H]1CN([C@@H](C)CO)S(=O)(=O)c2ccc(C#Cc3cccnc3)cc2O[C@@H]1CN(C)C :: 15.5%
C[C@@H]1CCCCO[C@H](CN(C)C)[C@H](C)CN([C@@H](C)CO)C(=O)c2cc(NS(=O)(=O)c3cn(C)cn3)ccc2O1 :: 6.19%

Provide reported OD600 change for each item, in the same order as listed.
1. COc1ccc(NC(=O)Nc2ccc3c(c2)C(=O)N([C@@H](C)CO)C[C@@H](C)[C@@H](CN(C)Cc2ccncc2)OCCCC[C@@H](C)O3)cc1
2. Cc1nc(-c2ccc([N+](=O)[O-])cc2)c(-c2ccccc2)o1
3. COc1cccc(CN2CC3(CN(Cc4ccccn4)C3)c3c([nH]c4cc(OC)ccc34)[C@@H]2CO)c1
4. O=C(c1ccc(F)cc1)N1CC(=O)N2[C@@H](CO)[C@H](c3ccc(C4=CCCC4)cc3)[C@@H]2C1
5. O=C(C[C@H]1C[C@H]2c3cc(NC(=O)C4CCOCC4)ccc3O[C@H]2[C@@H](CO)O1)NCCN1CCCCC1
6. CCOc1ccccc1Nc1ccc(C(=O)O)cc1[N+](=O)[O-]
7. CC(C)NC(=O)Nc1ccc2c(c1)C(=O)N([C@@H](C)CO)C[C@@H](C)[C@H](CN(C)C)OCCCC[C@H](C)O2

["-5.38%", "-14.4%", "8.73%", "4.94%", "7.29%", "-10.5%", "12.9%"]

Please give OD600 change for each item listed below.
1. C[C@@H]1CN([C@H](C)CO)C(=O)c2cc(NS(=O)(=O)c3ccccc3)ccc2O[C@H]1CN(C)S(=O)(=O)c1ccc(Cl)cc1
2. COc1ccc(CN2CCCCN3[C@H](C2)[C@H](c2ccc(-c4ccc(OC)cc4)cc2)[C@@H]3CO)cc1
3. C[C@H](O)C#Cc1cnc2c(c1)C(=O)N([C@@H](C)CO)C[C@@H](C)[C@@H](CN(C)C(=O)Cc1ccccn1)O2
4. COc1cccc(-c2noc(C3CCCN(C(=O)c4ccc(F)cc4)C3)n2)c1 (configuration not stated)
5. COc1ccc(-c2n[nH]c3c2CN(C(=O)c2ccc(F)cc2)CC3)cc1
6. COc1ccccc1N1CCN(C(=O)c2cc3c(-c4ccc(Cl)cc4)nn(C)c3s2)CC1
7. COc1ccc(NCCc2ccccn2)cc1

1. -11.5%
2. 2.56%
3. 12.6%
4. -14.3%
5. -10.1%
6. 11.2%
7. 10.1%

---

test: GFP drop in mixed WT/humanized-ribosome E. coli culture – GFP/RFP fluorescence, OD600, single point, bacterial rRNA inhibitor project, primary screen (AID 720706); conditions: E. coli WT GFP vs humanized-ribosome RFP mutants, 24 h; stronger effect = lower value, DMSO median 0, no signal -100
Screen size: about 350,000 compounds; about 5,500 (1.6%) were called active. This excerpt belongs to a sample that is enriched for actives.
Attribute measured: GFP signal change (wild-type ribosome) (%)
Numbers only, in %.

Could I get GFP signal change (wild-type ribosome) for every one of these entries?
1. CCCC#Cc1cnc2c(c1)C(=O)N([C@H](C)CO)C[C@H](C)[C@H](CN(C)S(=O)(=O)c1cn(C)cn1)O2
2. CCN(CC)C(=O)Oc1ccc(Br)cc1C(=O)Nc1ccc(F)c(Cl)c1
3. CCN(CC)C(=O)C(=O)Nc1cccc(Br)c1
4. COCC(=O)N1CCCCN2[C@H](C1)[C@@H](c1ccc(-c3ccccc3)cc1)[C@@H]2CO

7.7
-28
2.19
2.96

Data credit: PubChem BioAssay AID720706
